# System: COLO 205
# Protocol: NCI tumour cell line growth inhibition, 48 h
Calls of active or inactive are those of the source. Cut-off read from the data, not from the text of the source: active = GI50 up to about 1.1 µM and inactive = higher.
Catalogue of GI50 values

Worked set:
Compound | Readout name | Reported measurement
CC(=O)N(CN1C(=O)CCC1C(=O)O)c1ccc(C)cc1 (stereo unspecified) | GI50 | > 100 µM (inactive)
O=C1OC(c2ccccc2)=N/C1=C/NC(CO)C(=O)O (stereo unspecified) | GI50 | > 100 µM (inactive)
COC1=CC(=O)C2C(C1=O)C(c1ccc(OC)c(OC)c1)[C@H]2C (stereo partly specified) | GI50 | 19.1 µM (inactive)
CCCCN(CCCC)CCCCNc1c(C)cnc2cc(Cl)ccc12 | GI50 | 23.3 µM (inactive)
NC(=O)C(=O)C1CCC2=C(Sc3ccccc3N2)C1=O (stereo unspecified) | GI50 | > 100 µM (inactive)

Report value: GI50, system: COLO 205, compound: CCCCC(=O)NC1(c2cc3ccccc3s2)CCCCC1
> 100 µM (inactive)

Report value: GI50, system: COLO 205, compound: Cc1c(F)c(N)c2c(=O)cc(-c3ccc(NC(=O)CN(C)C)c(F)c3)oc2c1F
36.6 µM (inactive)

Report value: GI50, system: COLO 205, compound: COc1cccc(C=C2N=C(c3ccccc3)N(n3c(-c4ccccc4)nc4ccccc4c3=O)C2=O)c1
54 µM (inactive)

Report value: GI50, system: COLO 205, compound: N#C/C(=C/n1c(=S)[nH]c2ccccc21)C(N)=O
> 100 µM (inactive)

Report value: GI50, system: COLO 205, compound: N=C(N)NS(=O)(=O)c1ccc(NNc2c3ccccc3nc3c(C(=O)Nc4ccc(S(=O)(=O)Nc5ncccn5)cc4)cccc23)cc1
40.5 µM (inactive)

Report value: GI50, system: COLO 205, compound: CC(=O)c1ccc2c(c1)oc(=O)n2CCN(C)C
> 100 µM (inactive)

Report value: GI50, system: COLO 205, compound: CC(=O)O[C@H]1CC[C@@]2(C)C(=CC[C@H]3[C@@H]4C[C@H](N5CCN(C)CC5)[C@H](OC(C)=O)[C@@]4(C)CC[C@@H]32)C1
17.1 µM (inactive)

Report value: GI50, system: COLO 205, compound: CCOC(=O)c1csc(NC(=O)C(C)N2CCOCC2)n1 (stereo unspecified)
> 100 µM (inactive)

Report value: GI50, system: COLO 205, compound: CCOC(=O)CC[C@H](N)C(=O)N[C@H](Cc1ccc(N(CCCl)CCCl)cc1)C(=O)OCC
0.977 µM (active)

Report value: GI50, system: COLO 205, compound: Clc1ccc2nc(-c3ccccc3)nc(Cl)c2c1
> 100 µM (inactive)
